The entries below are paired with their reported Dmax.
Target: VAV1 (Homo sapiens, UniProt P15498+Q96SW2)
Construct: A heterozygous VAV1 C-terminal HiBiT knock-in pool was generated at Monte Rosa Therapeutics from a clonal Jurkat cell; endogenous in cells; host or cells: Jurkat clone stably expressing LgBiT, homozygous GSPT1-G575N; heterozygous VAV1-HiBiT knock-in pool
Experiment: VAV1 degradation activity, VAV1-HiBiT knock-in Jurkat luminescence assay (Example A, Table 1)
Assay type: cell-based
Conditions: Jurkat, VAV1-HiBiT knock-in Jurkat cells, luminescence read at 6 and 24 hours; read-out: VAV1 Dmax %
# number only, unit % dropped from output

Take a look at these entries with their results.
molecule: O=C1CCC(c2cccc(-c3ccc(-n4ccccc4=O)c(F)c3)c2Cl)C(=O)N1 (stereo not shown)
u: %
test result: 97.1

molecule: CC1CCC(F)(F)C(=O)N1Cc1ccc(-c2cccc(C3CCC(=O)NC3=O)c2Cl)cc1 (stereo not shown)
u: %
test result: 93.2

molecule: O=C1CCC(c2cccc(-c3ccc(N4CCn5cncc5C4=O)cc3)c2Cl)C(=O)N1 (stereo not shown)
u: %
test result: 89.8

Let us examine a further case.
Looking for the measured Dmax of O=C1CCC(c2cccc(-c3ccc(N4CCCCS4(=O)=O)cc3)c2Cl)C(=O)N1 (stereo not shown) , can you help?
77.2

----------
Molecular target: VAV1 (Homo sapiens, UniProt P15498+Q96SW2)
Construct: A heterozygous VAV1 C-terminal HiBiT knock-in pool was generated at Monte Rosa Therapeutics from a clonal Jurkat cell; endogenous in cells; host or cells: Jurkat clone stably expressing LgBiT, homozygous GSPT1-G575N; heterozygous VAV1-HiBiT knock-in pool
Assay: VAV1 degradation activity, VAV1-HiBiT knock-in Jurkat luminescence assay (Example A, Table 1)
Type: cell-based
Conditions: VAV1-HiBiT knock-in Jurkat cells, luminescence read at 6 and 24 hours after compound addition; read-out: VAV1 DC50 (nM), class
The entries below are paired with their reported DC50.

Take a look at these entries with their results.
compound: Cn1ccc(CN2C(=O)CCc3cc(-c4cccc(C5CCC(=O)NC5=O)c4Cl)ccc32)n1 (stereo not drawn) [Compound 501]
test result: ≤ 100 nM
--
compound: O=C1CCC(c2cccc(-c3ccc4c(c3)CCN4)c2Cl)C(=O)N1 (stereo not drawn) [Compound 490]
test result: 100 to 1000 nM
--
compound: O=C1CCC(c2cccc(-c3ccc4cc[nH]c4c3)c2Cl)C(=O)N1 (stereo not drawn) [Compound 483]
test result: ≤ 100 nM
--
compound: O=C1CCC(c2cccc(-c3ccc4c(c3)CC(=O)N4Cc3cocn3)c2Cl)C(=O)N1 (stereo not drawn) [Compound 505]
test result: ≤ 100 nM
--
compound: Cn1cncc1Cn1ncc2cc(-c3cccc(C4CCC(=O)NC4=O)c3Cl)ccc21 (stereo not drawn) [Compound 508]
test result: ≤ 100 nM
--
compound: O=C1CCC(c2cccc(-c3ccc4[nH]ncc4c3)c2Cl)C(=O)N1 (stereo not drawn) [Compound 485]
test result: ≤ 100 nM
--
compound: O=C1CCC(c2cccc(-c3ccc4c(c3)CC(=O)N4CC3CC3)c2Cl)C(=O)N1 (stereo not drawn) [Compound 506]
test result: > 1000 nM
--
compound: O=C1CCC(c2cccc(-c3ccc4cn[nH]c4c3)c2Cl)C(=O)N1 (stereo not drawn) [Compound 484]
test result: 100 to 1000 nM
--
compound: Cn1ccc(CN2C(=O)Cc3cc(-c4cccc(C5CCC(=O)NC5=O)c4Cl)ccc32)n1 (stereo not drawn) [Compound 496]
test result: ≤ 100 nM
--
compound: O=C1CCC(c2cccc(-c3ccc4c(c3)CCC(=O)N4)c2Cl)C(=O)N1 (stereo not drawn) [Compound 492]
test result: ≤ 100 nM

Let us examine a further case.
Looking for the measured DC50 of Cn1ccc(Cn2ccc3cc(-c4cccc(C5CCC(=O)NC5=O)c4Cl)ccc32)n1 (stereo not drawn) [Compound 499] , can you help?
≤ 100 nM

----------
The entries below are paired with their reported Dmax.
Target: VAV1 (Homo sapiens, UniProt P15498+Q96SW2)
Construct: A heterozygous VAV1 C-terminal HiBiT knock-in pool was generated at Monte Rosa Therapeutics from a clonal Jurkat cell; endogenous in cells; host or cells: Jurkat clone stably expressing LgBiT, homozygous GSPT1-G575N; heterozygous VAV1-HiBiT knock-in pool
Experiment: VAV1 degradation activity, VAV1-HiBiT knock-in Jurkat luminescence assay (Example A, Table 1)
Assay type: cell-based
Details: Jurkat, VAV1-HiBiT knock-in Jurkat cells, luminescence read at 6 and 24 hours after compound addition; read-out: VAV1 Dmax %, class
Protocol: Cells were plated at 10,000 cells per well using Multiflo (BioTek) or Multi Drop Combi (Thermo Fisher) in 384-well white solid bottom plates (Corning, 3570BC) in 25 ul volume in RPMI 1640 media (Thermo Fischer, 22400105) containing 10% FBS (Corning, 35-075-CV), 1% Penicillin/Streptomycin (ThermoFisher Scientific, 15140-122), and 1% Endurazine (Nano-Glo Endurazine Live Cell Substrate (Promega, N2571)). Cells were incubated for ˜16 hours at 37° C., 5% CO2. […]

Take a look at these entries with their results.
compound: CN1CCc2cc(-c3cccc(C4CCC(=O)NC4=O)c3Cl)ccc21 (centres unmarked)
Dmax: > 90%

compound: Cn1ccc(CN2CCc3cc(-c4cccc(C5CCC(=O)NC5=O)c4Cl)ccc32)n1 (centres unmarked)
Dmax: > 90%

compound: CN1Cc2cc(-c3cccc(C4CCC(=O)NC4=O)c3Cl)ccc2N(Cc2ccn(C)n2)C1=O (centres unmarked)
Dmax: 60 to 90%

compound: O=C1CCC(c2cccc(-c3cnc4c(c3)OCCN4)c2Cl)C(=O)N1 (centres unmarked)
Dmax: 60 to 90%

compound: Cn1ccc(CN2C(=O)CCc3cc(-c4cccc(C5CCC(=O)NC5=O)c4Cl)ccc32)n1 (centres unmarked)
Dmax: > 90%

compound: Cn1ccc(Cc2noc3cc(-c4cccc(C5CCC(=O)NC5=O)c4Cl)ccc23)n1 (centres unmarked)
Dmax: 60 to 90%

compound: O=C1CCC(c2cccc(-c3ccc4c(c3)CCCN4)c2Cl)C(=O)N1 (centres unmarked)
Dmax: > 90%

Looking for the measured Dmax of O=C1CCC(c2cccc(-c3ccc4c(c3)CC(=O)N4CC3CC3)c2Cl)C(=O)N1 (centres unmarked) , can you help?
60 to 90%

----------
Biological target: VAV1 (Homo sapiens, UniProt P15498+Q96SW2)
Construct: A heterozygous VAV1 C-terminal HiBiT knock-in pool was generated at Monte Rosa Therapeutics from a clonal Jurkat cell; endogenous in cells; host or cells: Jurkat clone stably expressing LgBiT, homozygous GSPT1-G575N; heterozygous VAV1-HiBiT knock-in pool
Assay: VAV1 degradation activity, VAV1-HiBiT knock-in Jurkat luminescence assay (Example A, Table 1)
Assay type: cell-based
Details: Jurkat, VAV1-HiBiT knock-in Jurkat cells, luminescence read at 6 and 24 hours; read-out: VAV1 Dmax %, class
Description: Cells were plated at 10,000 cells per well using Multiflo (BioTek) or Multi Drop Combi (Thermo Fisher) in 384-well white solid bottom plates (Corning, 3570BC) in 25 ul volume in RPMI 1640 media (Thermo Fischer, 22400105) containing 10% FBS (Corning, 35-075-CV), 1% Penicillin/Streptomycin (ThermoFisher Scientific, 15140-122), and 1% Endurazine (Nano-Glo Endurazine Live Cell Substrate (Promega, N2571)). Cells were incubated for ˜16 hours at 37° C., 5% CO2. […]
experimental readout: Dmax

Take a look at these entries with their results.
molecule: C[C@H]1COCC(=O)N1Cc1ccc(-c2cccc(C3CCC(=O)NC3=O)c2Cl)cc1 (some centres unmarked)
subject of test: VAV1 (Homo sapiens, UniProt P15498+Q96SW2)
Dmax: 60 to 90%
--
molecule: O=C1CCC(c2cccc(-c3ccc(CC4COC4)cc3)c2Cl)C(=O)N1 (centres unmarked)
subject of test: VAV1 (Homo sapiens, UniProt P15498+Q96SW2)
Dmax: > 90%
--
molecule: O=C1CCC(c2cccc(-c3ccc(CN4CCCC4=O)cc3)c2Cl)C(=O)N1 (centres unmarked)
subject of test: VAV1 (Homo sapiens, UniProt P15498+Q96SW2)
Dmax: 60 to 90%
--
molecule: COC(=O)c1ccc(Cc2ccc(-c3cccc(C4CCC(=O)NC4=O)c3Cl)cc2)n1C (centres unmarked)
subject of test: VAV1 (Homo sapiens, UniProt P15498+Q96SW2)
Dmax: > 90%
--
molecule: C[C@H]1COC(=O)N1c1ccc(-c2cccc(C3CCC(=O)NC3=O)c2Cl)cc1 (some centres unmarked)
subject of test: VAV1 (Homo sapiens, UniProt P15498+Q96SW2)
Dmax: 60 to 90%

Let us examine a further case.
Looking for the measured Dmax of O=C1CCC(c2cccc(-c3ccc(N4CCCCS4(=O)=O)cc3)c2Cl)C(=O)N1 (centres unmarked) , can you help?
60 to 90%

----------
Biological target: VAV1 (Homo sapiens, UniProt P15498+Q96SW2)
Construct: A heterozygous VAV1 C-terminal HiBiT knock-in pool was generated at Monte Rosa Therapeutics from a clonal Jurkat cell; endogenous in cells; host or cells: Jurkat clone stably expressing LgBiT, homozygous GSPT1-G575N; heterozygous VAV1-HiBiT knock-in pool
Assay: VAV1 degradation activity, VAV1-HiBiT knock-in Jurkat luminescence assay (Example A, Table 1)
Assay type: cell-based
Details: VAV1-HiBiT knock-in Jurkat cells, luminescence read at 6 and 24 hours; read-out: VAV1 DC50 (nM), class
Description: Cells were plated at 10,000 cells per well using Multiflo (BioTek) or Multi Drop Combi (Thermo Fisher) in 384-well white solid bottom plates (Corning, 3570BC) in 25 ul volume in RPMI 1640 media (Thermo Fischer, 22400105) containing 10% FBS (Corning, 35-075-CV), 1% Penicillin/Streptomycin (ThermoFisher Scientific, 15140-122), and 1% Endurazine (Nano-Glo Endurazine Live Cell Substrate (Promega, N2571)). Cells were incubated for ˜16 hours at 37° C., 5% CO2. […]
The entries below are paired with their reported DC50.

compound: O=C1CCC(c2cccc(-c3ccc(CN4CC(C(F)(F)F)OCC4=O)cc3)c2Cl)C(=O)N1 (centres unmarked) [Compound 258]
experimental readout: DC50
test result: ≤ 100 nM

compound: Cn1ccc(COc2ccc(-c3cccc(C4CCC(=O)NC4=O)c3Cl)cc2)n1 (centres unmarked) [Compound 154]
experimental readout: DC50
test result: ≤ 100 nM

compound: O=C1CCC(c2cc(F)cc(-c3ccc(-n4ccccc4=O)cc3)c2Cl)C(=O)N1 (centres unmarked) [Compound 361]
experimental readout: DC50
test result: ≤ 100 nM

Looking for the measured DC50 of O=C1CCC(c2cccc(-c3ccc(C4COC4)cc3)c2Cl)C(=O)N1 (centres unmarked) [Compound 198] , can you help?
> 1000 nM

Now this one: O=C1CCC(c2cccc(-c3ccc(-n4ccccc4=O)cc3)c2Cl)C(=O)N1 (centres unmarked) [Compound 185]
≤ 100 nM

Value source: patent US12257247B2
